method.description: Systemic delivery study: plasma pharmacokinetics after iontophoretic patch or subcutaneous injection
Assay type: in vivo, domestic swine
run.conditions: pig, in vivo, sc; subcutaneous 6 mg; male swine (animal 8P167); read-out: AUC(0-12)
measure.name: AUC(0-t) (ng·h/mL)
Express your answer in ng·h/mL, writing the number without its unit.

Reported AUC(0-t) for C[C@@H]1C[C@H]2[C@@H]3CCC4=CC(=O)C=C[C@]4(C)[C@@]3(F)[C@@H](O)C[C@]2(C)[C@@]1(O)C(=O)COP(=O)(O)O [DexP, Dexamethasone sodium phosphate] : what is it? 36.4

* * *

method.description: Systemic delivery study: plasma pharmacokinetics after iontophoretic patch or subcutaneous injection
Assay type: in vivo, domestic swine
run.conditions: pig, plasma, sc; subcutaneous 6 mg; female swine; read-out: AUC(0-14)
measure.name: AUC(0-t)
Could you give the number and then its unit, please?

Reported AUC(0-t) for C[C@@H]1C[C@H]2[C@@H]3CCC4=CC(=O)C=C[C@]4(C)[C@@]3(F)[C@@H](O)C[C@]2(C)[C@@]1(O)C(=O)COP(=O)(O)O [DexP, Dexamethasone sodium phosphate] : what is it? 60.5 ng·h/mL

* * *

method.description: Systemic delivery study: plasma pharmacokinetics after iontophoretic patch or subcutaneous injection
Type: in vivo, domestic swine
run.conditions: pig, in vivo, sc; subcutaneous 6 mg; male swine (animal 8P167); read-out: t½ (converted)
measure.name: half-life (min)
Express your answer in min, writing the number without its unit.

Reported half-life for C[C@@H]1C[C@H]2[C@@H]3CCC4=CC(=O)C=C[C@]4(C)[C@@]3(F)[C@@H](O)C[C@]2(C)[C@@]1(O)C(=O)COP(=O)(O)O [DexP, Dexamethasone sodium phosphate] : what is it? 51
